- tested-target: human Bradykinin B1 receptor (Homo sapiens, UniProt P46663)
- Sequence (P46663 1-353): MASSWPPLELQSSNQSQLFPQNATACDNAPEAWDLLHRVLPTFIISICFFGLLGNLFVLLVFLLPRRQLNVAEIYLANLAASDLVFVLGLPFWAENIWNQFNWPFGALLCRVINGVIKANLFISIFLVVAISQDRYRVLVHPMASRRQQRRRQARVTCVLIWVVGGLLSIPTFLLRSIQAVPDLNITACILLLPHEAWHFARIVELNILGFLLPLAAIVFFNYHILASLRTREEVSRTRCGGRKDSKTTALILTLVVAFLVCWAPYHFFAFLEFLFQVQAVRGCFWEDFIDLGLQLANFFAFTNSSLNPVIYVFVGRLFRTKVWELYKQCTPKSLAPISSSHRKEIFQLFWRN
- procedure-text: Calcium flux assay (FLIPR), CHO-K1 cells expressing human Bradykinin B1 receptor, absence of 0.1% BSA (hB1 free IC50)
- conditions: absence of 0.1% BSA in assay buffer
endpoint-name: IC50 (nM)
One number for each entry, in nM.

Take a look at these entries with their results.
>  <molecule>
O=C(O)c1cc(NC(=O)C2(c3ccc(C(F)(F)F)cc3F)CC2)ccc1-c1cnn([C@H]2CCOC2)c1

>  <IC50 / nM>
570

$$$$
>  <molecule>
CC1CCC(C2(C(=O)Nc3cc(F)c(-c4cnn(C5CCC5)c4)c(C(=O)O)c3)CC2)CC1 (mixture of isomers) [Example 144]

>  <IC50 / nM>
320

$$$$

Okay, next one:
Quick check: IC50 of `O=C(O)c1cc(NC(=O)C2(c3ccccc3)CC2)cc(F)c1-c1cnn(C2CCC2)c1` ?
2800

====

- tested-target: UniProt:P46663
- procedure-text: Calcium flux assay (FLIPR), CHO-K1 cells expressing human Bradykinin B1 receptor, absence of 0.1% BSA (hB1 free IC50)
- conditions: absence of 0.1% BSA in assay buffer
Give measured pIC50 for each item. Keep answers brief.
Numbers only, as −log10 of the molar value.

Take a look at these entries with their results.
>  <item-smiles>
CC(C)n1cc(-c2ccc(NC(=O)C3(c4ccc(OC(F)(F)F)cc4F)CC3)cc2C(=O)O)cn1

>  <tested-target>
UniProt:P46663

>  <pIC50>
7.33

$$$$
>  <item-smiles>
CC(C)Cn1cc(-c2ccc(NC(=O)C3(c4ccc(Cl)cc4F)CC3)cc2C(=O)O)cn1

>  <tested-target>
UniProt:P46663

>  <pIC50>
7.25

$$$$
>  <item-smiles>
CCC(F)(F)c1ccc(-c2c(F)cc(NC(=O)C3(c4ccc(OC(F)(F)F)cc4F)CC3)cc2C(=O)O)cn1

>  <tested-target>
UniProt:P46663

>  <pIC50>
8.00

$$$$

Go through the list and state pIC50 for each entry.
1. O=C(O)c1cc(NC(=O)C2(c3cc(Cl)ccc3F)CC2)ccc1-c1cnn(C2CCC2)c1
2. Cc1cc(NC(=O)C2(c3ccc(C(F)(F)F)cc3F)CC2)cc(C(=O)O)c1-c1cnn(C2CCC2)c1
3. O=C(O)c1cc(NC(=O)C2(Cc3ccc(Cl)cc3)CC2)cc(F)c1-c1cnn(C2CCC2)c1
4. CC[C@@H](C)n1cc(-c2ccc(NC(=O)C3(c4ccc(OC(F)(F)F)cc4F)CC3)cc2C(=O)O)cn1
5. O=C(O)c1cc(NC(=O)C2(c3ccc(OC(F)(F)F)cc3F)CC2)ccc1-c1cnn(C2CCCCC2)c1
6. CCn1cc(-c2ccc(NC(=O)C3(c4ccc(C(F)(F)F)cc4F)CC3)cc2C(=O)O)cn1
7. O=C(O)c1cc(NC(=O)C2(c3ccc(OC(F)(F)F)cc3F)CC2)cc(F)c1-c1cnn(C2CCC2)c1
8. Cc1cc(NC(=O)C2(c3ccc(C(F)(F)F)cc3F)CC2)cc(C(=O)O)c1-c1ccc(C(F)(F)F)nc1

1: 7.59; 2: 7.66; 3: 5.51; 4: 7.36; 5: 7.66; 6: 7.44; 7: 8.15; 8: 5.62

Quick check: pIC50 of `CC(C)(C)c1cn(-c2ccc(NC(=O)C3(c4ccc(C(F)(F)F)cc4F)CC3)cc2C(=O)O)cn1` ?
7.21
